# credit: ChEMBL document CHEMBL1201862

tested on: A549; experiment: NCI tumour cell line growth inhibition, 48 h
Activity calls are given as the source filed them. Cut-off read from the data, not from the text of the source: active = GI50 up to about 1.1 µM and inactive = higher.
Could you please pick one outcome from this set? Yes (active), No (inactive)

- molecule: "C=CCCCCNC(=O)C[C@@H]1C2=C(CC[C@H]1O[Si](C)(C)C(C)(C)C)N1C(=O)CCC/C=C\\C1C2 (some centres undefined)"
  tested system: "A549"
  label class: "No"
- molecule: "NC(=S)N/N=C1/C(=O)N(c2ccccc2)C(=O)C1C(=O)Nc1ccccc1 (centres undefined)"
  tested system: "A549"
  label class: "No"
- molecule: "COC(=O)C1=C2SCc3cccc(c3)CSC3=C(C(=O)OC)SC(=C(S2)S1)S3"
  tested system: "A549"
  label class: "No"
- molecule: "C=C(C)[C@H]1C2=CC(C)=C(O2)[C@@H](O[C@@H]2c3oc(cc3C)[C@H](C(=C)C)[C@H]3C=C(CC[C@H]2C(=C)C)C(=O)O3)[C@H](C(=C)C)CCC2=C[C@H]1OC2=O"
  tested system: "A549"
  label class: "No"
- molecule: "Cc1ccc(C(=O)/C=C/c2ccccc2Cl)cc1"
  tested system: "A549"
  label class: "No"
- molecule: "CC[C@@H](CCCC[C@@H]1CC[C@H]2CC(=O)C[C@@H]12)OC"
  tested system: "A549"
  label class: "No"
- molecule: "CSC1(CC(=O)N2CCCCC2)C(=O)Nc2ccccc21 (centres undefined)"
  tested system: "A549"
  label class: "No"
- molecule: "Cc1cc(C)c2c(O)cc(-c3cccc4ccccc34)nc2n1"
  tested system: "A549"
  label class: "Yes"

Now look at this entry.
query: // return assay outcome for COc1ccc(/C=C2\N=C(N3CCOCC3)NC2=O)cc1
result: No

----------
test system: SK-OV-3; assay: NCI tumour cell line growth inhibition, 48 h
Calls of active or inactive are those of the source. Cut-off read from the data, not from the text of the source: active = GI50 up to about 1.1 µM and inactive = higher.
Give one outcome, nothing more. List: active, inactive

These recorded examples may help you get a feel for the data.
- molecule: "COc1ccc2c(c1)c[n+](C)c1c3cc(OC)c(OC)cc3ccc21"
  label class: "inactive"
- molecule: "CCOC(=O)CC(=O)C(=O)NN=C1NCCCN1"
  label class: "inactive"
- molecule: "Cc1cc(C)nc(NC(=O)c2ccc(Br)s2)c1"
  label class: "inactive"
- molecule: "Cc1cc(C)c2c(O)cc(-c3cccc4ccccc34)nc2n1"
  label class: "active"
- molecule: "O=C1CCCC1C(O)(C(F)(F)Cl)C(F)(F)Cl (stereo not given)"
  label class: "inactive"
- molecule: "C[C@@H]1C(=O)O[C@@H]2C[C@@]1(C)[C@@H]1C(=O)C3(O)OC14C2(C)OC(=O)[C@@]4(O)CCC1C3C(O)C=C2CC=CC(=O)[C@@]21C (stereo not given in full)"
  label class: "inactive"
- molecule: "COCCCN1C(=O)C2c3[nH]c4ccccc4c3C3CCC(C(C)(C)C)CC3C2C1=O (stereo not given)"
  label class: "inactive"
- molecule: "COc1ccc(-n2c3c(c4c(CN(C)C)c(O)ccc42)C(=O)c2ccccc2C3=O)cc1"
  label class: "inactive"
- molecule: "CC12c3c4ccc(C=O)c3Oc3ccc(C=O)c(c31)Oc1ccc(C=O)c(c12)O4"
  label class: "inactive"

query: Dear all, I need the recorded test outcome for CC(=O)N(N=O)c1ccc(N(N=O)C(C)=O)cc1 , thank you.
result: inactive
